Recorded protein stability index, one value per entry.
B1: LOXL2 (parent)
chain: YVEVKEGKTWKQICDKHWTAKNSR

variants of: B1; experiment: protein stability index of a GFP-peptide fusion (GPS, HEK-293T) (PSI 1-6); higher = more stable; settings: c terminus: a fixed tail appended;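 also: lentivirally expressed fusions sorted by FACS into six bins by GFP to DsRed ratio, PSI derived from sequencing read proportions per bin multiplied by bin number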

- seqText: "YVEVKEGKTWKQICDKHWTYKNSR [A20Y]"
  protein stability index: 2.27
- seqText: "YVEVKEGKTWKQPCDKHWTAKNSR [I13P]"
  protein stability index: 3.38
- seqText: "YVVVKEGKTWKQICDKHWTAKNSR [E3V]"
  protein stability index: 1.56
- seqText: "YMEVKEGKTWKQICDKHWTAKNSR [V2M]"
  protein stability index: 2.96
- seqText: "YVEVKEGKTQKQICDKHWTAKNSR [W10Q]"
  protein stability index: 2.7
- seqText: "YVEVKEGKTWKQICDKHMTAKNSR [W18M]"
  protein stability index: 2.46
- seqText: "YVEVKEGKTWKQACDKHWTAKNSR [I13A]"
  protein stability index: 2.73
- seqText: "YVEVKEGKYWKQICDKHWTAKNSR [T9Y]"
  protein stability index: 2.33
- seqText: "YVEVKEGKTWKQICDKHWGAKNSR [T19G]"
  protein stability index: 2.56
- seqText: "YVEVKEGKTWKQICDKHWTAKNSS [R24S]"
  protein stability index: 3.24
- seqText: "YVEVKEGKTWKQICDKHWTAKNHR [S23H]"
  protein stability index: 2
- seqText: "YVEVKEGKTWKQICDRHWTAKNSR [K16R]"
  protein stability index: 3.43
- seqText: "YVESKEGKTWKQICDKHWTAKNSR [V4S]"
  protein stability index: 2.73
- seqText: "YVEVKEGKTMKQICDKHWTAKNSR [W10M]"
  protein stability index: 2.37
- seqText: "YVEVKEGKTWKQICDKHPTAKNSR [W18P]"
  protein stability index: 1.94
- seqText: "YVEVKEGKTWKQQCDKHWTAKNSR [I13Q]"
  protein stability index: 2.5
- seqText: "YVWVKEGKTWKQICDKHWTAKNSR [E3W]"
  protein stability index: 2.6
- seqText: "YAEVKEGKTWKQICDKHWTAKNSR [V2A]"
  protein stability index: 1.78
- seqText: "YVEVKEGKTWKQICDKHWTAVNSR [K21V]"
  protein stability index: 2.03
- seqText: "YVEVKEGKTWKQICDKHATAKNSR [W18A]"
  protein stability index: 2.76
- seqText: "YVEVKEKKTWKQICDKHWTAKNSR [G7K]"
  protein stability index: 1.91
- seqText: "YVEVKEGKTWKQICDKHWWAKNSR [T19W]"
  protein stability index: 2.64
- seqText: "YVEVKAGKTWKQICDKHWTAKNSR [E6A]"
  protein stability index: 2.14
- seqText: "YVEVLEGKTWKQICDKHWTAKNSR [K5L]"
  protein stability index: 2.65
- seqText: "YVEVKEGFTWKQICDKHWTAKNSR [K8F]"
  protein stability index: 2.42
- seqText: "HVEVKEGKTWKQICDKHWTAKNSR [Y1H]"
  protein stability index: 3.14
- seqText: "YVEVKEGKTWKQICDKHETAKNSR [W18E]"
  protein stability index: 2.52
- seqText: "YVEVKEGKTWKQICDKHWTAKKSR [N22K]"
  protein stability index: 3.05
- seqText: "YVEVKEGKTWKQIPDKHWTAKNSR [C14P]"
  protein stability index: 1.98
- seqText: "YVEVKEGKTWKQICYKHWTAKNSR [D15Y]"
  protein stability index: 2.13
- seqText: "YVEVKEGKTWKEICDKHWTAKNSR [Q12E]"
  protein stability index: 1.58
- seqText: "YVEVKGGKTWKQICDKHWTAKNSR [E6G]"
  protein stability index: 3.33
- seqText: "YVEVKEGKTWKQSCDKHWTAKNSR [I13S]"
  protein stability index: 2.38
- seqText: "YVEVKEGKTWKQICDKHWCAKNSR [T19C]"
  protein stability index: 2.75
- seqText: "YVEVKPGKTWKQICDKHWTAKNSR [E6P]"
  protein stability index: 2.18
- seqText: "YVEFKEGKTWKQICDKHWTAKNSR [V4F]"
  protein stability index: 2.36
- seqText: "YVEVKVGKTWKQICDKHWTAKNSR [E6V]"
  protein stability index: 3.77
- seqText: "YVEVKEGSTWKQICDKHWTAKNSR [K8S]"
  protein stability index: 2.44
- seqText: "YVEVKEGKTWKQICDKHWTAKNCR [S23C]"
  protein stability index: 2.73
- seqText: "YVEVKEGKTKKQICDKHWTAKNSR [W10K]"
  protein stability index: 2.61
- seqText: "YVEVKEGKTWFQICDKHWTAKNSR [K11F]"
  protein stability index: 3.38
- seqText: "YVEVCEGKTWKQICDKHWTAKNSR [K5C]"
  protein stability index: 1.65
- seqText: "YVEVKEGKTWDQICDKHWTAKNSR [K11D]"
  protein stability index: 1.18
- seqText: "YVEVKEGKTEKQICDKHWTAKNSR [W10E]"
  protein stability index: 2.99
- seqText: "YHEVKEGKTWKQICDKHWTAKNSR [V2H]"
  protein stability index: 1.55
- seqText: "YVEVKEGKTWKQICDKQWTAKNSR [H17Q]"
  protein stability index: 1.53
